This collection of values is drawn from patent US9187471B2.

molecular target: rat adrenergic α1A receptor (Rattus norvegicus, UniProt P43140); construct: rat adrenergic α1A receptor obtained from Wistar Rat submaxillary glands; from tissue; host or cells: Wistar rat submaxillary glands; experiment: Adrenergic α1A radioligand binding ([3H]Prazosin); conditions: read-out: Adrenergic (0.1 μM) a1A, percent inhibition of specific binding; compound at 0.1 μM; 0.25 nM [3H]Prazosin
Sequence (P43140 whole entry): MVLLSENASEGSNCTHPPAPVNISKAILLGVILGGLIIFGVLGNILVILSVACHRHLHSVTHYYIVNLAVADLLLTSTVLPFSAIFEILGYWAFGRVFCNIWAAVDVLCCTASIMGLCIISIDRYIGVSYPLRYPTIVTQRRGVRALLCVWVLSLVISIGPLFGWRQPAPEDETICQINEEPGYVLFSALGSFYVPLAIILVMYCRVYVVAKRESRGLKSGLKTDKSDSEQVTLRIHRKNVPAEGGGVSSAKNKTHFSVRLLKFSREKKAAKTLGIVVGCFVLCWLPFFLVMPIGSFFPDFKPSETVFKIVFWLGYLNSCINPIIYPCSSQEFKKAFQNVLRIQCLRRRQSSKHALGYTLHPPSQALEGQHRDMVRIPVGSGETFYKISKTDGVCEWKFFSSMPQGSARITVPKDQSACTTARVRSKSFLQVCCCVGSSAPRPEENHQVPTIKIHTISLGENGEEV
Kind request: treat 30% as inclusive, so inhibition at 0.1 µM at 30% or higher is Criterion met, anything lower is Criterion not met.

q: Determine whether this molecule has inhibition at 0.1 µM no lower than 30%: Cc1ccc2c(c1)c1c(n2-c2cccc(-c3ccc(S(N)(=O)=O)cc3)c2)CCN(C)C1
a: Criterion not met

q: Determine whether this molecule has inhibition at 0.1 µM no lower than 30%: CNC(=O)c1ccc(-c2cccc(-n3c4c(c5cc(C)ccc53)CN(C)CC4)c2)cn1
a: Criterion not met

q: Determine whether this molecule has inhibition at 0.1 µM no lower than 30%: Cc1ccc2c(c1)c1c(n2-c2cccc(-c3ccc(O)nc3)c2)CCN(C)C1
a: Criterion not met

q: Determine whether this molecule has inhibition at 0.1 µM no lower than 30%: Cc1ccc2c(c1)c1c(n2-c2ccc(-c3ccc(F)nc3)cn2)CCN(C)C1
a: Criterion met

q: Determine whether this molecule has inhibition at 0.1 µM no lower than 30%: Cc1ccc2c(c1)c1c(n2-c2cscc2-c2sccc2C)CCN(C)C1
a: Criterion met

q: Determine whether this molecule has inhibition at 0.1 µM no lower than 30%: Cc1ccc2c(c1)c1c(n2-c2ccc(-c3cncc4ccccc34)cn2)CCN(C)C1
a: Criterion met

q: Determine whether this molecule has inhibition at 0.1 µM no lower than 30%: CNC(=O)c1cccc(-c2cscc2-n2c3c(c4cc(C)ccc42)CN(C)CC3)c1
a: Criterion not met

q: Determine whether this molecule has inhibition at 0.1 µM no lower than 30%: Cc1ccc2c(c1)c1c(n2-c2ccccc2-c2ccc(F)cc2)CCN(C)C1
a: Criterion met

----------
Give inhibition at 0.1 µM for every item shown.
biological target: human recombinant serotonin (5-Hydroxytryptamine) 5-HT2A receptor (Homo sapiens, UniProt P28223); construct: expressed in transfected cells; host or cells: CHO-K1; test: Serotonin 5-HT2A radioligand binding ([3H]Ketanserin); conditions: compound at 0.1 μM; read-out: Inhibition of ligand binding, Serotonin 5-HT2A (percent inhibition of specific binding)
Sequence (P28223 whole entry): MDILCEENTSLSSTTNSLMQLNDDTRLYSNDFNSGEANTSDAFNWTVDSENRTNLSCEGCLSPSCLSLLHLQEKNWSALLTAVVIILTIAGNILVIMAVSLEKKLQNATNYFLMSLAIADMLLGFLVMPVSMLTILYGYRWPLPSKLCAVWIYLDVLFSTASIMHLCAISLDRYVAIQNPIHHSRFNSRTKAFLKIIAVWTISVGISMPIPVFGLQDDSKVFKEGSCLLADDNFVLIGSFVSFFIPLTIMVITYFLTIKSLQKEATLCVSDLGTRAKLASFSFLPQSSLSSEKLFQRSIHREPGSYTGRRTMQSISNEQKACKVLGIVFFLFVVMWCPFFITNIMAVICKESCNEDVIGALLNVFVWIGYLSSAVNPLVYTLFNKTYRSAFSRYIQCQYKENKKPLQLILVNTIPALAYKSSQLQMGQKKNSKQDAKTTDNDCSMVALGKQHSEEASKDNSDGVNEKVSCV
A number alone suffices; assume %.

q: Please report inhibition at 0.1 µM for the following compound: Cc1ccc2c(c1)c1c(n2-c2cccc(-c3cn[nH]c3)c2)CCN(C)C1
a: 98

q: Please report inhibition at 0.1 µM for the following compound: CC(=O)Nc1ccc(-c2ccc(-n3c4c(c5cc(C)ccc53)CN(C)CC4)nc2)cn1
a: 64

q: Please report inhibition at 0.1 µM for the following compound: Cc1ccc2c(c1)c1c(n2-c2cscc2-c2cncc3ccccc23)CCN(C)C1
a: 57

q: Please report inhibition at 0.1 µM for the following compound: Cc1ccc2c(c1)c1c(n2-c2ccccc2-c2ccc(C)nc2)CCN(C)C1
a: 47

q: Please report inhibition at 0.1 µM for the following compound: Cc1ccc2c(c1)c1c(n2-c2ccc(C)nc2)CCN(C)C1
a: 36

q: Please report inhibition at 0.1 µM for the following compound: Cc1ccc2c(c1)c1c(n2-c2cscc2-c2cnn(C)c2)CCN(C)C1
a: 92

q: Please report inhibition at 0.1 µM for the following compound: Cc1cc(C)c2c(c1)c1c(n2-c2cccc(-c3ccncc3)c2)CCN(C)C1
a: 70

q: Please report inhibition at 0.1 µM for the following compound: Cc1ccc2c(c1)c1c(n2-c2ccccc2-c2ccc(F)nc2)CCN(C)C1
a: 89

q: Please report inhibition at 0.1 µM for the following compound: Cc1ccc2c(c1)c1c(n2-c2cccc(-c3ccnn3C)c2)CCN(C)C1
a: 90

q: Please report inhibition at 0.1 µM for the following compound: Cc1ccc2c(c1)c1c(n2-c2ccccc2-c2ccc(S(C)(=O)=O)cc2)CCN(C)C1
a: 36

q: Please report inhibition at 0.1 µM for the following compound: CC(=O)Nc1ccc(-c2cscc2-n2c3c(c4cc(C)ccc42)CN(C)CC3)cn1
a: 31

q: Please report inhibition at 0.1 µM for the following compound: Cc1ccc2c(c1)c1c(n2-c2ccc(-c3cccc4[nH]ncc34)cn2)CCN(C)C1
a: 62

q: Please report inhibition at 0.1 µM for the following compound: Cc1ccc2c(c1)c1c(n2-c2ccc(-c3ccc4c(ccn4C)c3)cn2)CCN(C)C1
a: 98

q: Please report inhibition at 0.1 µM for the following compound: Cc1ccc2c(c1)c1c(n2-c2cscc2-c2ccc(O)nc2)CCN(C)C1
a: 18

q: Please report inhibition at 0.1 µM for the following compound: Cc1ccc2c(c1)c1c(n2-c2ccc3ccncc3c2)CCN(C)C1
a: 34

q: Please report inhibition at 0.1 µM for the following compound: Cc1ccc2c(c1)c1c(n2-c2cscc2-c2cccc3[nH]ncc23)CCN(C)C1
a: 84

q: Please report inhibition at 0.1 µM for the following compound: CNC(=O)c1ccc(-c2cscc2-n2c3c(c4cc(C)ccc42)CN(C)CC3)cc1
a: 27

q: Please report inhibition at 0.1 µM for the following compound: Cc1ccc2c(c1)c1c(n2-c2cscc2-c2ccnn2C)CCN(C)C1
a: 53

q: Please report inhibition at 0.1 µM for the following compound: Cc1ccc2c(c1)c1c(n2-c2ncccc2-c2ccncc2)CCN(C)C1
a: 17

q: Please report inhibition at 0.1 µM for the following compound: CNC(=O)c1cc(-n2c3c(c4cc(C)ccc42)CN(C)CC3)cs1
a: 59

q: Please report inhibition at 0.1 µM for the following compound: Cc1ccc2c(c1)c1c(n2-c2ccc(-c3cncc4ccccc34)cn2)CCN(C)C1
a: 72

q: Please report inhibition at 0.1 µM for the following compound: Cc1ccc2c(c1)c1c(n2-c2ccccc2-c2cn[nH]c2)CCN(C)C1
a: 57

q: Please report inhibition at 0.1 µM for the following compound: Cc1ccc2c(c1)c1c(n2-c2cccc(-c3ccc(S(N)(=O)=O)cc3)c2)CCN(C)C1
a: 91

q: Please report inhibition at 0.1 µM for the following compound: Cc1ccc2c(c1)c1c(n2-c2ccc(-c3ccncc3)cn2)CCN(C)C1
a: 83

q: Please report inhibition at 0.1 µM for the following compound: Cc1ccc2c(c1)c1c(n2-c2cccc(-c3ccc(O)nc3)c2)CCN(C)C1
a: 76

q: Please report inhibition at 0.1 µM for the following compound: Cc1ccc2c(c1)c1c(n2-c2cccc(-c3ccc(F)nc3)c2)CCN(C)C1
a: 103

q: Please report inhibition at 0.1 µM for the following compound: Cc1ccc2c(c1)c1c(n2-c2cscc2-c2ccc(S(C)(=O)=O)cc2)CCN(C)C1
a: 30

q: Please report inhibition at 0.1 µM for the following compound: Cc1ccc2c(c1)c1c(n2-c2ccc(-c3ccc(C)nc3)cn2)CCN(C)C1
a: 90

q: Please report inhibition at 0.1 µM for the following compound: CC(=O)Nc1ccc(-c2ccccc2-n2c3c(c4cc(C)ccc42)CN(C)CC3)cn1
a: 41

q: Please report inhibition at 0.1 µM for the following compound: Cc1ccc2c(c1)c1c(n2-c2ccncc2)CCN(C)C1
a: 74

q: Please report inhibition at 0.1 µM for the following compound: CNC(=O)c1ccc(-c2cscc2-n2c3c(c4cc(C)ccc42)CN(C)CC3)cn1
a: 64

q: Please report inhibition at 0.1 µM for the following compound: Cc1ccc2c(c1)c1c(n2-c2ccccc2-c2ccncc2)CCN(C)C1
a: 83

q: Please report inhibition at 0.1 µM for the following compound: Cc1csc(-c2ccc(-n3c4c(c5cc(C)ccc53)CN(C)CC4)nc2)c1
a: 103

q: Please report inhibition at 0.1 µM for the following compound: COc1ccc(-n2c3c(c4cc(C)ccc42)CN(C)CC3)cn1
a: 62

----------
target: rat adrenergic α1A receptor (Rattus norvegicus, UniProt P43140); construct: rat adrenergic α1A receptor obtained from Wistar Rat submaxillary glands; from tissue; host or cells: Wistar rat submaxillary glands; assay: Adrenergic α1A radioligand binding ([3H]Prazosin); settings: read-out: Adrenergic (0.1 μM) a1A, percent inhibition of specific binding; compound at 0.1 μM; 0.25 nM [3H]Prazosin
reported-metric: inhibition at 0.1 µM (%)
A number alone suffices; assume %.

q: Please report inhibition at 0.1 µM for the following compound: Cc1ccc2c(c1)c1c(n2-c2ccc(-c3cccc4[nH]ncc34)cn2)CCN(C)C1
a: 37

q: Please report inhibition at 0.1 µM for the following compound: Cc1ccc2c(c1)c1c(n2-c2ccccc2-c2cccn2C)CCN(C)C1
a: 46

q: Please report inhibition at 0.1 µM for the following compound: Cc1cc(C)c2c(c1)c1c(n2-c2cccc3ncccc23)CCN(C)C1
a: -1

q: Please report inhibition at 0.1 µM for the following compound: Cc1ccc2c(c1)c1c(n2-c2ccccc2-c2ccc(C)s2)CCN(C)C1
a: 34

q: Please report inhibition at 0.1 µM for the following compound: Cc1ccc2c(c1)c1c(n2-c2ccccc2-c2cc3ccccc3s2)CCN(C)C1
a: 44

q: Please report inhibition at 0.1 µM for the following compound: Cc1ccc2c(c1)c1c(n2-c2ccc(-c3ccc4c(ccn4C)c3)cn2)CCN(C)C1
a: 20

q: Please report inhibition at 0.1 µM for the following compound: Cc1ccc2c(c1)c1c(n2-c2ccccc2-c2ccc(O)nc2)CCN(C)C1
a: 15

q: Please report inhibition at 0.1 µM for the following compound: Cc1ccc2c(c1)c1c(n2-c2ccccc2-c2ccnn2C)CCN(C)C1
a: 27

q: Please report inhibition at 0.1 µM for the following compound: Cc1ccc2c(c1)c1c(n2-c2ccc(-c3cccc4ccccc34)cn2)CCN(C)C1
a: 33

q: Please report inhibition at 0.1 µM for the following compound: Cc1ccc2c(c1)c1c(n2-c2cscc2-c2ccc(F)nc2)CCN(C)C1
a: 78

q: Please report inhibition at 0.1 µM for the following compound: Cc1ccc2c(c1)c1c(n2-c2cscc2-c2cc3ccccc3s2)CCN(C)C1
a: 64

q: Please report inhibition at 0.1 µM for the following compound: CNC(=O)c1ccc(-c2cscc2-n2c3c(c4cc(C)ccc42)CN(C)CC3)cc1
a: 80

q: Please report inhibition at 0.1 µM for the following compound: Cc1ccc2c(c1)c1c(n2-c2ccc(-c3cccnc3)cn2)CCN(C)C1
a: 21

q: Please report inhibition at 0.1 µM for the following compound: Cc1ccc2c(c1)c1c(n2-c2ccc(-c3ccc(S(N)(=O)=O)cc3)cn2)CCN(C)C1
a: 44

q: Please report inhibition at 0.1 µM for the following compound: Cc1ccc2c(c1)c1c(n2-c2ccc(-c3ccncc3)cn2)CCN(C)C1
a: 11

q: Please report inhibition at 0.1 µM for the following compound: Cc1ccc2c(c1)c1c(n2-c2cscc2C(=O)N(C)C)CCN(C)C1
a: 6

q: Please report inhibition at 0.1 µM for the following compound: Cc1ccc2c(c1)c1c(n2-c2cccc(-c3ccc4c(ccn4C)c3)c2)CCN(C)C1
a: -11

q: Please report inhibition at 0.1 µM for the following compound: Cc1ccc2c(c1)c1c(n2-c2cccc(-c3c(C)noc3C)c2)CCN(C)C1
a: 1

q: Please report inhibition at 0.1 µM for the following compound: Cc1ccc2c(c1)c1c(n2-c2cscc2-c2cncc3ccccc23)CCN(C)C1
a: 4
